# TEST: Stability
# Assay type: in vitro ADME
# RUN CONDITIONS: rat, whole blood, half-life of SP in blood samples, EDTA-K2 as anticoagulant, samples kept at 0 °C
Where no end group is shown, it is not given here.
OBSERVABLE: half-life (min)

SUBSTANCE: GQTYTSG [SP, GQTYTSG]
READOUT VALUE: 11.5

###

# TEST: Stability
# Assay type: in vitro ADME
# RUN CONDITIONS: rat, half-life, 25 °C, in vitro
Where no end group is shown, it is not given here.

SUBSTANCE: GQTYTSG [SP, GQTYTSG]
half-life: < 10 min
